- MEASURED TARGET: MERTK (Homo sapiens, UniProt Q12866)
- Sequence (Q12866 21-999): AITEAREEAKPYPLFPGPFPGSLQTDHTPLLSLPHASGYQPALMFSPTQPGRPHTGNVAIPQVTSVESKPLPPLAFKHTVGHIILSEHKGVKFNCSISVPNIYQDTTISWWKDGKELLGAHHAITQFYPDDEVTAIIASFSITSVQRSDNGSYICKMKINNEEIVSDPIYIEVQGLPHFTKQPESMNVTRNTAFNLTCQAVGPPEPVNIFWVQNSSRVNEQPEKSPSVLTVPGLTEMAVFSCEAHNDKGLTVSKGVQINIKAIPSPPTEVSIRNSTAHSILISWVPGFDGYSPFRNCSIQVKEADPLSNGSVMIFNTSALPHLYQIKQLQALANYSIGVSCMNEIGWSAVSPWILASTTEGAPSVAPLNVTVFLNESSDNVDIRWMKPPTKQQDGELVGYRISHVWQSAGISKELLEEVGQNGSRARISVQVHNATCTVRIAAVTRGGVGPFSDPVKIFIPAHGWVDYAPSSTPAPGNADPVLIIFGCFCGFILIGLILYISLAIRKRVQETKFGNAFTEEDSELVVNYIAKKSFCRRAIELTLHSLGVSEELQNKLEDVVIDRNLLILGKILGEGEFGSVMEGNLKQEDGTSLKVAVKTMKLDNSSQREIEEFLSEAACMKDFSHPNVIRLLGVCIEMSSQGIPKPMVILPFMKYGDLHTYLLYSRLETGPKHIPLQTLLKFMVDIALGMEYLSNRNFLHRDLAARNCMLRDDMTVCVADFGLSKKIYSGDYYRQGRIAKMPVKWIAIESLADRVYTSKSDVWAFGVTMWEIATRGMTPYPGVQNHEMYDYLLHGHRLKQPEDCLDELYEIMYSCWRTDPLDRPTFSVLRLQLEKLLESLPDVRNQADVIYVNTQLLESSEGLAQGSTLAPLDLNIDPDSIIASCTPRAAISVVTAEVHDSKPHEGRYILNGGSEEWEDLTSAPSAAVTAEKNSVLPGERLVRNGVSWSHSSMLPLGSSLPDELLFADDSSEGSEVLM
- TEST METHOD NOTES: MERTK enzymatic assay (Kinase Glo)
- Assay type: biochemical
- STUDY CONDITIONS: purified kinase, ATP 12 μM, read-out: MER Enzymatic Inhibition (%)
Parameter: IC50. Scope: all listed entries.

Example compounds with recorded IC50:
{"RECORD SMILES": "CC(=O)Nc1cccc(-c2c(-c3cnn(C)c3)oc3ncnc(Oc4ccc(NC(=O)c5cccn(-c6ccccc6)c5=O)cc4)c23)c1", "IC50": "20 to 100 nM"}
{"RECORD SMILES": "CN(C)Cc1cccc(-c2c[nH]c3ncnc(Oc4ccc(NC(=O)c5cn(C)n(-c6ccc(F)cc6)c5=O)cc4)c23)c1", "IC50": "100 to 50000 nM"}
{"RECORD SMILES": "CC(=O)Nc1cccc(-c2c[nH]c3ncnc(Oc4ccc(NC(=O)c5cccn(-c6ccc(F)cc6)c5=O)cc4)c23)c1", "IC50": "20 to 100 nM"}

Notebook: CC(=O)Nc1cccc(-c2c(C)oc3ncnc(Oc4ccc(NC(=O)c5cccn(-c6ccc(F)cc6)c5=O)cc4)c23)c1 , IC50 read as 100 to 50000 nM

Notebook: CN(C)Cc1cccc(-c2c(-c3cnn(C)c3)oc3ncnc(Oc4ccc(NC(=O)c5cccn(C6CCCCC6)c5=O)cc4)c23)c1 , IC50 read as 100 to 50000 nM

Notebook: CC(=O)Nc1cccc(-c2n[nH]c3ncnc(Oc4ccc(NC(=O)c5cccn(-c6ccc(F)cc6)c5=O)cc4)c23)c1 , IC50 read as 100 to 50000 nM

----------
- MEASURED TARGET: AXL (Homo sapiens)
- Sequence (P30530 26-894): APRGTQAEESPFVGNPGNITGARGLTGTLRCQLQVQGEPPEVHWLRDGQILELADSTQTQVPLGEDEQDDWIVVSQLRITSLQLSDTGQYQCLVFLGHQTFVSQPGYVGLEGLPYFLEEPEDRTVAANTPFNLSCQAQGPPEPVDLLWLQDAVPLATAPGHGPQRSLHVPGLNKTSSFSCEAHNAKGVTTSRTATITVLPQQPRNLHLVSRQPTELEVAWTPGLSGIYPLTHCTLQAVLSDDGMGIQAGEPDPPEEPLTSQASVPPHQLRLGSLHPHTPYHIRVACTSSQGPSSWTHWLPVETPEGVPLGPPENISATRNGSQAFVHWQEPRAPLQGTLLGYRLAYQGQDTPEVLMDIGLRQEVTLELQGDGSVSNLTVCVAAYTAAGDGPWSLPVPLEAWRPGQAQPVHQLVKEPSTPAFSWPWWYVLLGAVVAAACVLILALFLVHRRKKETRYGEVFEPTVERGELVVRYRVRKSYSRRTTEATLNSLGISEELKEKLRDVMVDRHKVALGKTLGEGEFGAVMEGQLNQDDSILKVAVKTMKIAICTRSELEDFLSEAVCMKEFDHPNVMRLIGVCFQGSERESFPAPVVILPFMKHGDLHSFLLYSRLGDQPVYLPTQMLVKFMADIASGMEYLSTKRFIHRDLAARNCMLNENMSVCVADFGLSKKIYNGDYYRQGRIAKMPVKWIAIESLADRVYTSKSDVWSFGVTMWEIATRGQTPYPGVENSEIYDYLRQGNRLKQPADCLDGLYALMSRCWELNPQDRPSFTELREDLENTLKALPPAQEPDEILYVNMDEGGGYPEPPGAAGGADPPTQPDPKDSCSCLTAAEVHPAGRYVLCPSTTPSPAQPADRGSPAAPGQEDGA
- TEST METHOD NOTES: AXL enzymatic assay (ADP-Glo)
- Type: biochemical
- STUDY CONDITIONS: purified kinase, ATP 50 μM, read-out: AXL Enzymatic Inhibition (%)
pIC50: −log10 of the molar value.
ENDPOINT LABEL: pIC50

Example compounds with recorded pIC50:
{"COMPOUND": "Cn1cc(-c2oc3ncnc(Oc4ccc(NC(=O)c5cccn(-c6ccccc6)c5=O)cc4)c3c2-c2cccc(N)c2)cn1 [Compound 54]", "MEASURED TARGET": "AXL (Homo sapiens)", "REPORTED": "> 7.70"}
{"COMPOUND": "CCOc1ccn(-c2ccc(F)cc2)c(=O)c1C(=O)Nc1ccc(Oc2ncnc3[nH]cc(-c4cccc(N)c4)c23)cc1 [Compound 1]", "MEASURED TARGET": "AXL (Homo sapiens)", "REPORTED": "> 7.70"}

Notebook: CC(=O)Nc1cccc(-c2c[nH]c3ncnc(Oc4ccc(NC(=O)c5cccn(-c6ccc(F)cc6)c5=O)cc4)c23)c1 [Compound 4] , pIC50 read as > 7.70

Notebook: CC(=O)Nc1cccc(-c2c(C)oc3ncnc(Oc4ccc(NC(=O)c5cccn(-c6ccc(F)cc6)c5=O)cc4)c23)c1 [Compound 50] , pIC50 read as 7.00 to 7.70

Notebook: CN(C)Cc1cccc(-c2c(-c3cnn(C)c3)oc3ncnc(Oc4ccc(NC(=O)c5cn(C)n(-c6cccc(F)c6)c5=O)cc4)c23)c1 [Compound 133] , pIC50 read as > 7.70

Notebook: CC(=O)Nc1cccc(-c2c(-c3cnn(C)c3)oc3ncnc(Oc4ccc(NC(=O)c5cc(-c6ccc(F)cc6)on5)cc4)c23)c1 [Compound 116] , pIC50 read as 4.30 to 7.00

The reported measurements were obtained from patent US20260070911A1.
